Answer each item with its documented chromatographic logP.
Assay: log P determination by HPLC on reversed-phase column (C18), acidic range
Assay type: physicochemical
Details: LC-UV, formic acid in water/acetonitrile
Method: log P Values The log P values were determined according to EEC Directive 79/831 Annex V.A8 by HPLC (high-performance liquid chromatography) on a reversed-phase column (C18) using the following methods: ^[a] […] Calibration was carried out using a homologous series of straight-chain alkan-2-ones (having 3 to 16 carbon atoms) with known log P values. The values between successive alkanones are determined by linear regression.
Answers are plain numbers.

Examples from the recorded data:
COMPOUND	OBSERVED_RESULT
Cn1c(C(F)(F)F)cc2nc(-c3nc4n(c3Br)CCC(C)(C)C4)n(C)c2c1=O	3.14
CC1(C)CCn2c(nc(C(=O)O)c2Br)C1	0.67
CCS(=O)(=O)c1c(-c2nc3cc(C(F)(F)F)n(C)c(=O)c3n2C)nc2cc(C3(C#N)CC3)ccn12 [Example I-02]	2.59
CCS(=O)(=O)c1c(-c2nc3cc(C(F)(F)F)n(C)c(=O)c3n2C)nc2n1CCC(C)(C)C2 [Example I-10]	2.66
CCS(=O)(=O)c1c(-c2nc3cc(C(F)(F)F)n(C)c(=O)c3n2C)nc2cc(C(F)(F)F)ccn12 [Example I-01]	3.2
CCS(=O)(=O)c1c(-c2nc3cc(C(F)(F)F)n(C)c(=O)c3n2C)nc2n1CCCC2 [Example I-03]	2.03

Please examine the following record next.
Qu. Given the entry CCS(=O)(=O)c1c(-c2nc3cc(C(F)(F)F)n(C)c(=O)c3n2C)nc2cc(S(=O)(=O)C3CC3)ccn12 [Example I-12] , report its measured chromatographic logP.
Ans. 2.59
